Molecular target: cynomolgus monkey C17,20 lyase (Macaca fascicularis)
Construct: microsomal preparations of the enzyme from testicular tissue; from tissue; host or cells: cynomolgus monkey testes, microsomes
Sequence (Q2XVA1 whole entry): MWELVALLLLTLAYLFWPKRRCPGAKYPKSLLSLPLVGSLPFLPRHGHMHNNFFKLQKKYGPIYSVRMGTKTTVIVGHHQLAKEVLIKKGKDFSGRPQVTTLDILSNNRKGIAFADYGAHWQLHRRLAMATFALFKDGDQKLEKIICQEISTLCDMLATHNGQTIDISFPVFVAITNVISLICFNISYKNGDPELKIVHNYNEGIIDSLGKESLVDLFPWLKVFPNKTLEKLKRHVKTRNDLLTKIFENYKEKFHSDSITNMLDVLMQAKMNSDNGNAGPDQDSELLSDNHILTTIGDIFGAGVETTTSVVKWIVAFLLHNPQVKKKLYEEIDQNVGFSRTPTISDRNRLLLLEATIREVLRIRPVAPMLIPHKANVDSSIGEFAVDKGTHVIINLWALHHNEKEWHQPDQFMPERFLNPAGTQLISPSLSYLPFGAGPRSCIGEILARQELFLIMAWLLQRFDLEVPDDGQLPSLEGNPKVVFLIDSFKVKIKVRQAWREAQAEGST
Test: In vitro C17,20 lyase assay, testicular microsomes
Format: biochemical
Conditions: 0.1 µM, preincubation 0 min; mean of duplicates
readoutType: inhibition at 0.1 µM (%)
Field format: number, assumed %, no unit text.

The cases that follow already have their inhibition at 0.1 µM on record.
molecule="CC12C=CC(=O)N[C@@H]1CCC1C2CCC2(C)C1CC[C@@H]2OC1CC1 (some centres unmarked)" system="cynomolgus monkey C17,20 lyase (Macaca fascicularis)" readouttype="inhibition at 0.1 µM" reported=6.4
molecule="C[C@]12CC[C@H]3[C@@H](CC=C4NC(=O)CC[C@@]43C)[C@@H]1CC[C@@H]2OC1CC1 (stereo in doubt)" system="cynomolgus monkey C17,20 lyase (Macaca fascicularis)" readouttype="inhibition at 0.1 µM" reported=5
molecule="CN1C(=O)CC[C@@]2(C)C1=CC[C@H]1[C@@H]3CC[C@H](OC4CC4)[C@@]3(C)CC[C@@H]12 (stereo in doubt)" system="cynomolgus monkey C17,20 lyase (Macaca fascicularis)" readouttype="inhibition at 0.1 µM" reported=-18.4
molecule=C[C@]12CC[C@H]3[C@@H](CC=C4NC(=O)CC[C@@]43C)[C@@H]1CC[C@@H]2NC1CC1 system="cynomolgus monkey C17,20 lyase (Macaca fascicularis)" readouttype="inhibition at 0.1 µM" reported=11.4

// next item, inhibition at 0.1 µM requested
Problem: # lookup: inhibition at 0.1 µM of CC12CCC3C(CC[C@H]4NC(=O)CCC34C)C1CC[C@@H]2OC1CC1 (some centres unmarked)
Result: 23.4

====

Listed below: inhibition at 0.1 µM values for each entry.
Molecular target: cynomolgus monkey C17,20 lyase (Macaca fascicularis)
Construct: microsomal preparations of the enzyme from testicular tissue; from tissue; host or cells: cynomolgus monkey testes, microsomes
Assay: In vitro C17,20 lyase assay, testicular microsomes
Type: biochemical
Details: 0.1 µM, preincubation 40 min; mean of duplicates

The cases that follow already have their inhibition at 0.1 µM on record.
molecule="CC12CCC3C(CC[C@H]4NC(=O)CCC34C)C1CC[C@@H]2OC1CC1 (some centres unmarked)" readouttype="inhibition at 0.1 µM" reported=20.2%
molecule="C[C@]12CC[C@H]3[C@@H](CC=C4NC(=O)CC[C@@]43C)[C@@H]1CC[C@@H]2OC1CC1 (stereo in doubt)" readouttype="inhibition at 0.1 µM" reported=26.6%
molecule=C[C@]12CC[C@H]3[C@@H](CC=C4NC(=O)CC[C@@]43C)[C@@H]1CC[C@@H]2NC1CC1 readouttype="inhibition at 0.1 µM" reported=24.6%
molecule="CC12C=CC(=O)N[C@@H]1CCC1C2CCC2(C)C1CC[C@@H]2OC1CC1 (some centres unmarked)" readouttype="inhibition at 0.1 µM" reported=18.3%

Problem: # lookup: inhibition at 0.1 µM of CN1C(=O)CC[C@@]2(C)C1=CC[C@H]1[C@@H]3CC[C@H](OC4CC4)[C@@]3(C)CC[C@@H]12 (stereo in doubt)
Result: -8.7%

====

Listed below: inhibition at 10 µM values for each entry.
Molecular target: cynomolgus monkey C17,20 lyase (Macaca fascicularis)
Construct: microsomal preparations of the enzyme from testicular tissue; from tissue; host or cells: cynomolgus monkey testes, microsomes
Assay: In vitro C17,20 lyase assay, testicular microsomes
Format: biochemical
Conditions: 10 µM, preincubation 40 min; mean of duplicates
Field format: number, assumed %, no unit text.

The cases that follow already have their inhibition at 10 µM on record.
molecule="CC12C=CC(=O)N[C@@H]1CCC1C2CCC2(C)C1CC[C@@H]2OC1CC1 (some centres unmarked) [MDL 103,129]" system="cynomolgus monkey C17,20 lyase (Macaca fascicularis)" readouttype="inhibition at 10 µM" unitofmeasurement=% reported=84.3
molecule="CN1C(=O)CC[C@@]2(C)C1=CC[C@H]1[C@@H]3CC[C@H](OC4CC4)[C@@]3(C)CC[C@@H]12 (stereo in doubt) [MDL 104,313]" system="cynomolgus monkey C17,20 lyase (Macaca fascicularis)" readouttype="inhibition at 10 µM" unitofmeasurement=% reported=70.2
molecule="C[C@]12CC[C@H]3[C@@H](CC=C4NC(=O)CC[C@@]43C)[C@@H]1CC[C@@H]2NC1CC1 [MDL 105,831]" system="cynomolgus monkey C17,20 lyase (Macaca fascicularis)" readouttype="inhibition at 10 µM" unitofmeasurement=% reported=100

Problem: # lookup: inhibition at 10 µM of C[C@]12CC[C@H]3[C@@H](CC=C4NC(=O)CC[C@@]43C)[C@@H]1CC[C@@H]2OC1CC1 (stereo in doubt) [MDL 103,496]
Result: 87.7

Problem: # lookup: inhibition at 10 µM of CC12CCC3C(CC[C@H]4NC(=O)CCC34C)C1CC[C@@H]2OC1CC1 (some centres unmarked) [MDL 103,432]
Result: 80.2

These entries and their values trace back to patent EP0880540B1.
